Target: NADPH oxidase 1 (Homo sapiens) (UniProt Q9Y5S8)
Sequence (Q9Y5S8 whole entry, looked up): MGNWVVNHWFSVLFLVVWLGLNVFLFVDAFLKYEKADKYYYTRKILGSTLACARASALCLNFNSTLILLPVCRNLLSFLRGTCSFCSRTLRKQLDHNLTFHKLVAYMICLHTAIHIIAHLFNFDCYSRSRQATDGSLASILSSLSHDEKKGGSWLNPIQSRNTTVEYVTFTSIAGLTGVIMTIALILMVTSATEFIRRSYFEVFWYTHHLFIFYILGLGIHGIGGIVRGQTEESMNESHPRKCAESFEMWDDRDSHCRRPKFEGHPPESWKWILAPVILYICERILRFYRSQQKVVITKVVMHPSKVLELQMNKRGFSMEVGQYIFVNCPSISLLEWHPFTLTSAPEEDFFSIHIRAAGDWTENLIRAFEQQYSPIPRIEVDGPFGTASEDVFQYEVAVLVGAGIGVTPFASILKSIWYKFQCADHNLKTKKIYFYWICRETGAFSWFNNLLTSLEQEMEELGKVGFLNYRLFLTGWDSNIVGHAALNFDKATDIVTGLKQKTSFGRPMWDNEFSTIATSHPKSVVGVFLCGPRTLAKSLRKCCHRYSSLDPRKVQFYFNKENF
Test: NOX1 inhibitors in colonic epithelial cells, confirmation, luminescence, HT29 cells (AID 2541)
Conditions: luminol ROS chemiluminescence, 1 h, at 3.3 µM
The source made the active and inactive calls.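 How the source made its calls: active means inhibition of at least 50%; inactive means inhibition below 50%.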
Hi! Could you answer with just one of these? true (1) for active, false (0) for inactive

See these solved cases before continuing.
Compound: Nc1nc(NCc2c(Cl)cccc2Oc2ccccc2)n[nH]1
Group label: true (1)

Compound: Cc1cc(Cl)ccc1NC(=S)NNC(=S)Nc1ccc(F)cc1
Group label: true (1)

Compound: CC1CN(c2ccc(NC(=S)NN)cc2)CC(C)O1 (stereo unspecified)
Group label: true (1)

Compound: O=c1[nH][nH]c2cccc(F)c12
Group label: false (0)

Compound: Cc1noc(C)c1C(=O)Nc1ccc(N2CCOCC2)nc1N1CCOCC1
Group label: true (1)

Turning now to a further record.
Data request: State the result this test recorded for CCOC(=O)C1=C(Nc2ccc(OC(C)=O)cc2)C(=O)N(C(C)(C)C)C1 .
Data returned: true (1)
